# System: LXRb:RXRa (NR concentration 270 nM, RXRa partner concentration 90 nM)
# ASSAY METHOD TEXT: PBM binding z-score (relative to random genomic background probes); higher = stronger binding; sequences stand for … in GC…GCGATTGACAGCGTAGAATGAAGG
The label depends only on PBM binding z-score: criterion met if it is at least 2, criterion not met if it is smaller.

[
  {
    "SEQUENCE RECORD": "CTCGAAAGGTTGTGCTCAGGTGAGTATACCAAAC",
    "ASSIGNED LABEL": "criterion not met"
  },
  {
    "SEQUENCE RECORD": "CGAACTAGGTCATTGACAGGACAGTAAATAGTAA",
    "ASSIGNED LABEL": "criterion met"
  },
  {
    "SEQUENCE RECORD": "AGAATGAGGTTATTACGATCAGGGAATTGCGGTC",
    "ASSIGNED LABEL": "criterion not met"
  },
  {
    "SEQUENCE RECORD": "GCTAGCAGGCCATTCGGGTCACTCAATGACGGGC",
    "ASSIGNED LABEL": "criterion not met"
  },
  {
    "SEQUENCE RECORD": "CTTCCAAGGTCAGCAGGTCAGTGAAAGCGACGTG",
    "ASSIGNED LABEL": "criterion met"
  },
  {
    "SEQUENCE RECORD": "GCTGCTAGGTCAACTGATGGTAAGCTAAAGCTCG",
    "ASSIGNED LABEL": "criterion not met"
  },
  {
    "SEQUENCE RECORD": "ACAGACAGGTGAGTCAAGGTAACTCAGCTGGACG",
    "ASSIGNED LABEL": "criterion not met"
  },
  {
    "SEQUENCE RECORD": "TCATATAGGTTATACAGGTGAAAGTCGGCATCTA",
    "ASSIGNED LABEL": "criterion not met"
  },
  {
    "SEQUENCE RECORD": "ATATGTATGTTACATCCGGGTCATTCAGGCTATG",
    "ASSIGNED LABEL": "criterion met"
  },
  {
    "SEQUENCE RECORD": "GCGACTGGGGCATCAGCAGCTTACCATAACTTAA",
    "ASSIGNED LABEL": "criterion not met"
  },
  {
    "SEQUENCE RECORD": "CGTCCAAGGTCAGCAGGACAGTGAAAGCGACGTG",
    "ASSIGNED LABEL": "criterion met"
  },
  {
    "SEQUENCE RECORD": "GGAACGAGGGCATTCGAGTTGAGAGCATGGCGAT",
    "ASSIGNED LABEL": "criterion not met"
  },
  {
    "SEQUENCE RECORD": "CCTAGTTGGTCAGGAGGTCACACAGCGGATATGA",
    "ASSIGNED LABEL": "criterion met"
  },
  {
    "SEQUENCE RECORD": "CCTCGGAGAACAGAAGGTCAGAGCTGTCCGCTTT",
    "ASSIGNED LABEL": "criterion not met"
  },
  {
    "SEQUENCE RECORD": "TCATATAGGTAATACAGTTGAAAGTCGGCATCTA",
    "ASSIGNED LABEL": "criterion not met"
  },
  {
    "SEQUENCE RECORD": "AGTCAAAATTCAGGACGAGGTAACGTAAAGCACG",
    "ASSIGNED LABEL": "criterion not met"
  },
  {
    "SEQUENCE RECORD": "CCTAGTTTGTCAGGAGGTCACACACCGGATATGA",
    "ASSIGNED LABEL": "criterion met"
  },
  {
    "SEQUENCE RECORD": "AGTCAAAGTTCAGGACGAGGGAACGTAAAGCACG",
    "ASSIGNED LABEL": "criterion not met"
  },
  {
    "SEQUENCE RECORD": "TCTCGGAGGACTCGAAAGGTCAGAGCTCGACATC",
    "ASSIGNED LABEL": "criterion met"
  },
  {
    "SEQUENCE RECORD": "TGTCGAAGTTCAAAGGTAACGTAAGTATCCACAC",
    "ASSIGNED LABEL": "criterion met"
  },
  {
    "SEQUENCE RECORD": "CCGACTGGGGCAAGGGTTACCATACTCAGTACGA",
    "ASSIGNED LABEL": "criterion not met"
  },
  {
    "SEQUENCE RECORD": "CAGCCTAGGTTAGGGCCAGTATAGGAGGAACGTT",
    "ASSIGNED LABEL": "criterion not met"
  },
  {
    "SEQUENCE RECORD": "AGTCAAAGTTCATCTAGGTAACGGAAGATATGCT",
    "ASSIGNED LABEL": "criterion met"
  },
  {
    "SEQUENCE RECORD": "ATCGTAAGGTCGAAGGTGAGTATACCCACCCGAA",
    "ASSIGNED LABEL": "criterion not met"
  },
  {
    "SEQUENCE RECORD": "ACTAGTCGGTCAGCTGAGGTCACACACAATTCGG",
    "ASSIGNED LABEL": "criterion met"
  },
  {
    "SEQUENCE RECORD": "ATCTCTAGGTTAAGTTCAGTGAAAGATCGATAGA",
    "ASSIGNED LABEL": "criterion not met"
  },
  {
    "SEQUENCE RECORD": "ATCGCTAGGTAACCAAGTTCAGTGAATGCCGAAC",
    "ASSIGNED LABEL": "criterion not met"
  },
  {
    "SEQUENCE RECORD": "TCGAGTAGGTTAGTCGGGGCTTTCAGCCAACATA",
    "ASSIGNED LABEL": "criterion not met"
  },
  {
    "SEQUENCE RECORD": "ATCGAAAGGTCGACGAGGTGATTATACACCGTTT",
    "ASSIGNED LABEL": "criterion met"
  },
  {
    "SEQUENCE RECORD": "CTCGAAAGGTCGTGCTAAGGTGAGTATACCAAAC",
    "ASSIGNED LABEL": "criterion met"
  },
  {
    "SEQUENCE RECORD": "GCTACTAGGTCAACTGATGGTCAGCTAAAGCTCG",
    "ASSIGNED LABEL": "criterion met"
  },
  {
    "SEQUENCE RECORD": "CTCGATAGGTCGTGCTCAGGTGAGTATACCAAAC",
    "ASSIGNED LABEL": "criterion not met"
  },
  {
    "SEQUENCE RECORD": "AATACAGGGTCACCAGGCCAGAGTAGGTACGAAT",
    "ASSIGNED LABEL": "criterion met"
  },
  {
    "SEQUENCE RECORD": "GGAACGAGGGCATTCGAGTTGATAGCCTGGCGAT",
    "ASSIGNED LABEL": "criterion not met"
  },
  {
    "SEQUENCE RECORD": "TATAGAGGGTCAAAGGCCAGAGTACGAATGTCGA",
    "ASSIGNED LABEL": "criterion met"
  },
  {
    "SEQUENCE RECORD": "CGTCCAAGGTCAAAGGTCAGTGCAGAGATGACGG",
    "ASSIGNED LABEL": "criterion met"
  },
  {
    "SEQUENCE RECORD": "CCTACTGGCCCATCAGGTCATTGATATCAACGTT",
    "ASSIGNED LABEL": "criterion not met"
  },
  {
    "SEQUENCE RECORD": "ACTAGCAGGGCAAGTTTGGGTCACTCAAACAAAG",
    "ASSIGNED LABEL": "criterion not met"
  },
  {
    "SEQUENCE RECORD": "TCTGTTAGTTGATTAGGGCAACCGAAACAGCGGA",
    "ASSIGNED LABEL": "criterion not met"
  },
  {
    "SEQUENCE RECORD": "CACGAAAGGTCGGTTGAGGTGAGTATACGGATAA",
    "ASSIGNED LABEL": "criterion not met"
  },
  {
    "SEQUENCE RECORD": "AATACAGGTTCATCGTAGGCCAGAGTACGCACAG",
    "ASSIGNED LABEL": "criterion met"
  }
]
